Taken from patent EP4365197A1.

# target.desc: CD47 protein (Acrobiosystems, cat#CD7-HA2E9) (UniProt Q08722)
# Sequence (Q08722 19-139 limits assumed): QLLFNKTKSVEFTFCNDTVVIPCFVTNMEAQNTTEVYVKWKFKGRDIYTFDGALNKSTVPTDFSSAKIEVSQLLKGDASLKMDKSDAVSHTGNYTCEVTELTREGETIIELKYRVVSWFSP
# test.name: ELISA, CD47 protein coated 100 ng/well, 0.8 µg antibody per well
measured.attribute: OD450 measurements (OD450)
Form entry: value (OD450) — number only.

Task: Bench note: what OD450 measurements did Hu3A5 (V13) antibody (antibody, V domains shown, Humanized 3A5) VH: QVQLVQSGSELKKPGASVKVSCKASGYTFTSYWMNWVRQAPGQGLEWMGVIDPSDSYTSYNQGFTGRFVFSVDTSVSTAYLQISSLKAEDTAVYYCARGGKRAMDYWGQGTTVTVSS VL: DVVMTQSPLSLPVTLGQPASISCRSSQSLVHSNGNTYLHWFQQRPGQSPRLLIYKVSNRFSGVPDRFSGSGSGTDFTLKISRVEAEDVGVYFCSQSTHVPFTFGGGTKLEIK show?
Output: 0.0966

Task: Bench note: what OD450 measurements did Hu3A5 (V12) antibody (antibody, V domains shown, Humanized 3A5) VH: EVQLVQSGSELKKPGASVKVSCKASGYTFTSYWMHWMRQAPGQGLEWIGVIDPSDSYTSYNQGFTGRFVLSVDTSVSTAYLQISSLKAEDTAVYYCARGGKRAMDYWGQGTTVTVSS VL: DVVMTQSPDSLAVSLGERATINCKSSQSLVHSNGNTYLHWYQQKPGQPPKLLIYKVSNRFSGVPDRFSGSGSGTDFTLTISSLQAEDVAVYYCSQSTHVPFTFGGGTKLEIK show?
Output: 2.85

More entries:
Task: Bench note: what OD450 measurements did Hu3A5 (V9) antibody (antibody, V domains shown, Humanized 3A5) VH: EVQLVQSGSELKKPGASVKVSCKASGYTFTSYWMHWMRQAPGQGLEWIGVIDPSDSYTSYNQGFTGRFVLSVDTSVSTAYLQISSLKAEDTAVYYCARGGKRAMDYWGQGTTVTVSS VL: DVVMTQSPLSLPVTLGQPASISCRSSQSLVHSNGNTYLHWFQQRPGQSPRLLIYKVSNRFSGVPDRFSGSGSGTDFTLKISRVEAEDVGVYFCSQSTHVPFTFGGGTKLEIK show?
Output: 2.65
